System: CCRIS mutagenicity, Ames/micronucleus/aberration tests
Experiment: CCRIS mutagenicity studies
Conditions: Test System: AMES SALMONELLA TYPHIMURIUM; Strain/Indicator: TA98; Metabolic Activation: NONE; Method: STANDARD PLATE
The source made the active and inactive calls. How the calls were made is not given here.
// allowed return values: active, inactive

For CC(=O)N(O)c1ccccc1 , what call appears in the results of this test?
inactive

Call for entry Clc1ccc(C(c2ccccc2Cl)C(Cl)Cl)cc1 (centres undefined) :
inactive

Called result for O=C(O)[C@@H]1CS[C@H](c2ccccc2O)N1C(=O)CCS
inactive

Hi, do you know how CCN1CCN(C(=O)N[C@@H](C(=O)N[C@@H]2C(=O)N3[C@@H]2SC(C)(C)[C@@H]3C(=O)O)c2ccccc2)C(=O)C1=O came out in this test?
inactive

Recorded call for COC(=O)[C@H]1O[C@@H]1c1ccccc1 ?
inactive

Further cases:
In this assay, the call recorded for Oc1cc(Cl)c(Cl)cc1Cl was what?
active

Call for entry c1cc2c3c(c4c(ccc5ccccc54)cc3c1)[C@H]1O[C@@H]21 :
active

Call for entry ClCc1cccc2cc3ccc4cccc5ccc(c12)c3c45 :
active

What call does the record list for Oc1ccccc1-c1nc2ccccc2o1 ?
inactive

In this assay, the call recorded for O=C1c2ccccc2C([N+](=O)[O-])c2ccccc21 was what?
inactive

Given CCCCC1C(=O)N(c2ccccc2)N(c2ccc(O)cc2)C1=O (centres undefined) , state the outcome it received in this test.
inactive

Test call, this molecule: O=C1N=NC(=O)C2C=CC=CC12 (centres undefined)
inactive

Outcome? CC(=O)Nc1ccc2c(c1)Cc1ccccc1-2
inactive

Name the outcome recorded for Nc1cc(Cl)cc(Cl)c1O in the assay.
inactive

Hey, what did the test say about c1ccc(-c2ccc(-c3ccccc3)cc2)cc1 ?
inactive

What outcome does the record of this test show for O=S1OC[C@@H]2[C@H](CO1)[C@]1(Cl)C(Cl)=C(Cl)[C@@]2(Cl)C1(Cl)Cl (some centres undefined) ?
inactive

GET /call?item= C=CC(=O)O returns the recorded outcome of this test.
inactive

Could you please tell me the result logged for CC1(C)C[C@H]2C=C(C=O)[C@]3(C=O)C[C@]3(C)[C@H]2C1 in this assay?
active

In this assay, the call recorded for CC/C(=C(\c1ccccc1)c1ccc(OCCN(C)C)cc1)c1ccccc1 was what?
inactive
